A collection of molecules and their measured AC50
target or system: UniProt P03372
Sequence (P03372 whole entry): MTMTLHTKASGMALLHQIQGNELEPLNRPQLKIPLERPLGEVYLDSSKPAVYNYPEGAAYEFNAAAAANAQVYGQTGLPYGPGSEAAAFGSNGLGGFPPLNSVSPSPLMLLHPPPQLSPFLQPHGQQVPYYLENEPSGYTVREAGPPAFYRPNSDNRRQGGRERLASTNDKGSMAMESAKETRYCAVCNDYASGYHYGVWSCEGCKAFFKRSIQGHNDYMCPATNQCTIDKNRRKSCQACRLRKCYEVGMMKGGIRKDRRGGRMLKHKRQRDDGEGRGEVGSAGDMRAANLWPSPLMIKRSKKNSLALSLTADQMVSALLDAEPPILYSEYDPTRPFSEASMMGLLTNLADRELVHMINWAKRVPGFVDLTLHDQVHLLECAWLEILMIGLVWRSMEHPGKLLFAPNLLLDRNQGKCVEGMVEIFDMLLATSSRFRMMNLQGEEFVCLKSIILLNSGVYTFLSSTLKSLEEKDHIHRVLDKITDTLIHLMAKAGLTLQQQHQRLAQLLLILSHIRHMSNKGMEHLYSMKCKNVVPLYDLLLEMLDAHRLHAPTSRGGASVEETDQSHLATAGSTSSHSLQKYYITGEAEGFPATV

molecule | AC50
CC(C)(C)NCC(O)COc1ccccc1C#N (stereo not given) | > 30 µM
COCC(=O)O[C@]1(CCN(C)CCCc2nc3ccccc3[nH]2)CCc2cc(F)ccc2[C@@H]1C(C)C | > 30 µM
CCCCC(=O)O[C@H]1CC[C@H]2[C@@H]3CCc4cc(O)ccc4[C@H]3CC[C@]12C [ESTRADIOL VALERATE] | 0.0822 µM
N=C(N)NC(=O)c1nc(Cl)c(N)nc1N [AMILORIDE] | > 30 µM
CC(C)NC[C@H](O)COc1ccc(O)cc1 | > 30 µM

====

target or system: Alpha-2A adrenergic receptor (Homo sapiens, UniProt P08913); also: assay procedure not described here
Sequence (P08913 whole entry): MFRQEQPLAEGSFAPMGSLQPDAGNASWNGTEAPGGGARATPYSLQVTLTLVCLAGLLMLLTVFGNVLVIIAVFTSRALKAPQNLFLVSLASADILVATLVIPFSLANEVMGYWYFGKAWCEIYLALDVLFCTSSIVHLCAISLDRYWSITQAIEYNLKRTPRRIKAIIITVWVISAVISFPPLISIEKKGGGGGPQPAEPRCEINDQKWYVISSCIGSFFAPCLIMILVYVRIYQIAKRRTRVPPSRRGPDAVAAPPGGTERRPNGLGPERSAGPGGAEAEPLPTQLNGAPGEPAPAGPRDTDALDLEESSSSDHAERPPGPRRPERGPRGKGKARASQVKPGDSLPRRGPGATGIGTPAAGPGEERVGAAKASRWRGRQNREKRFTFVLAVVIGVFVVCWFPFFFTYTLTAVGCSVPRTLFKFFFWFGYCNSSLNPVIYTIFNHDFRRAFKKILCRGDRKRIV
Assay type: functional, cell-based
assay endpoint: AC50

compound | assay endpoint | recorded result
CC(=O)OCC(=O)[C@@]1(O)CC[C@H]2[C@@H]3CCC4=CC(=O)CC[C@]4(C)[C@@]3(F)[C@@H](O)C[C@@]21C [FLUDROCORTISONE ACETATE] | AC50 | > 30 µM
CN(C)[C@@H]1C(O)=C(C(=O)NCN2CCCC2)C(=O)[C@@]2(O)C(O)=C3C(=O)c4c(O)cccc4[C@@](C)(O)[C@H]3C[C@@H]12 [ROLITETRACYCLINE] | AC50 | > 10 µM
CCc1ccc(C(=O)C(C)CN2CCCCC2)cc1 (configuration not stated) [EPERISONE] | AC50 | > 30 µM
CO/N=C(\C(=O)N[C@@H]1C(=O)N2C(C(=O)O)=C(CSc3nc(C)c(CC(=O)O)s3)CS[C@H]12)c1csc(N)n1 [CEFODIZIME] | AC50 | > 30 µM
C[C@]12C=CC(=O)C=C1CC[C@@H]1[C@@H]2[C@@H](O)C[C@@]2(C)[C@H]1CC[C@]2(O)C(=O)CO [PREDNISOLONE] | AC50 | > 10 µM
CNCCc1ccccn1 [BETAHISTINE] | AC50 | > 30 µM
C#CCN(C)Cc1ccccc1 [PARGYLINE] | AC50 | > 30 µM
CCOCC(O)COc1ccc(NC(=O)CC[S+](C)C)cc1 (configuration not stated) | AC50 | > 30 µM
CC[N+](CC)(CCNC(=O)C(=O)NCC[N+](CC)(CC)Cc1ccccc1Cl)Cc1ccccc1Cl [AMBENONIUM] | AC50 | > 30 µM
Cc1nnc2n1-c1ccc(Cl)cc1C(c1ccccc1)=NC2 [ALPRAZOLAM] | AC50 | > 10 µM
CCCO[C@H]1[C@@H]([C@@H](COCc2ccc(Cl)cc2)OCc2ccc(Cl)cc2)OC(OCC)[C@@H]1O (some centres not stated) [CLOBENOSIDE] | AC50 | > 30 µM
O=C(C[S+]([O-])Cc1ccco1)NC/C=C\COc1cc(CN2CCCCC2)ccn1 (configuration not stated) [LAFUTIDINE] | AC50 | > 10 µM
CCN(CC)CCCN(c1ccccc1)C1Cc2ccccc2C1 [APRINDINE] | AC50 | > 30 µM
CC(=O)OCC1=C(C(=O)O)N2C(=O)[C@@H](NC(=O)Cc3cccs3)[C@H]2SC1 [CEPHALOTHIN] | AC50 | > 30 µM
Oc1cc(Cl)ccc1Oc1ccc(Cl)cc1Cl [TRICLOSAN] | AC50 | > 30 µM
Cc1ccc(S(=O)(=O)NC(=O)N[C@H]2[C@H]3CC[C@@](C)([C@H]2O)C3(C)C)cc1 [GLIBORNURIDE] | AC50 | > 30 µM
CN1CCC(=C2c3ccccc3CC(=O)c3sccc32)CC1 [KETOTIFEN] | AC50 | > 10 µM

====

target or system: Prostaglandin G/H synthase 1 (Rattus norvegicus, UniProt Q63921); also: assay procedure not described here
Sequence (Q63921 whole entry): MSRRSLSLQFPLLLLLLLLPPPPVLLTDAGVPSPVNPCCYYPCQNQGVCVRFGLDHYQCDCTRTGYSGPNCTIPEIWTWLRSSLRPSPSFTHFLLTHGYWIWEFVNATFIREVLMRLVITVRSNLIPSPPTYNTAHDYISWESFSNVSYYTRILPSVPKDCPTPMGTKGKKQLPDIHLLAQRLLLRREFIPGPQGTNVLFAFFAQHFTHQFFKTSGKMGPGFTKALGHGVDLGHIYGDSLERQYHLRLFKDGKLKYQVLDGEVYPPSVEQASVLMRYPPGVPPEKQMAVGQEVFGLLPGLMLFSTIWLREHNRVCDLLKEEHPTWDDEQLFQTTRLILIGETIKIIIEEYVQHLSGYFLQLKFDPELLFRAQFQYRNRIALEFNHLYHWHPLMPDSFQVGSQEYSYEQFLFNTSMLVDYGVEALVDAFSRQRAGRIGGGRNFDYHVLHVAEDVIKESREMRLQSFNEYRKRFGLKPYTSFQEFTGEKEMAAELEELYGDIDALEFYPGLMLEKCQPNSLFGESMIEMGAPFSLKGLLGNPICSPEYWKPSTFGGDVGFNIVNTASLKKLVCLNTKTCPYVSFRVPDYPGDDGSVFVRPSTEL
Format: functional
A collection of molecules and their measured AC50
assay endpoint: AC50

molecule | recorded result
CC(=O)OCC(=O)[C@@]1(O)CC[C@H]2[C@@H]3CCC4=CC(=O)CC[C@]4(C)[C@@]3(F)[C@@H](O)C[C@@]21C [FLUDROCORTISONE ACETATE] | > 30 µM
CCCCOC(=O)c1ccc(N)cc1 | 0.6 µM
CCC[C@@]1(CCc2ccccc2)CC(O)=C([C@H](CC)c2cccc(NS(=O)(=O)c3ccc(C(F)(F)F)cn3)c2)C(=O)O1 | 5.8 µM
Cc1cccc(Nc2ccncc2S(=O)(=O)NC(=O)NC(C)C)c1 [TORSEMIDE] | > 10 µM
CCC(NC(C)C)C(O)c1ccc(O)c(O)c1 (centres undefined) | 0.66 µM
COc1cc(N)cn[n+]1-c1ccccc1 [AMEZINIUM METILSULFATE] | > 30 µM
CC(=O)OCC1=C(C(=O)O)N2C(=O)[C@@H](NC(=O)Cc3cccs3)[C@H]2SC1 | > 30 µM
CN(C)CCC(O)(c1ccccc1)c1ccccc1Cl (centres undefined) | > 10 µM
CNCCc1ccccn1 | > 30 µM

====

target or system: Voltage-gated inwardly rectifying potassium channel KCNH2 (Homo sapiens, UniProt Q12809); also: assay procedure not described here
Sequence (Q12809 whole entry): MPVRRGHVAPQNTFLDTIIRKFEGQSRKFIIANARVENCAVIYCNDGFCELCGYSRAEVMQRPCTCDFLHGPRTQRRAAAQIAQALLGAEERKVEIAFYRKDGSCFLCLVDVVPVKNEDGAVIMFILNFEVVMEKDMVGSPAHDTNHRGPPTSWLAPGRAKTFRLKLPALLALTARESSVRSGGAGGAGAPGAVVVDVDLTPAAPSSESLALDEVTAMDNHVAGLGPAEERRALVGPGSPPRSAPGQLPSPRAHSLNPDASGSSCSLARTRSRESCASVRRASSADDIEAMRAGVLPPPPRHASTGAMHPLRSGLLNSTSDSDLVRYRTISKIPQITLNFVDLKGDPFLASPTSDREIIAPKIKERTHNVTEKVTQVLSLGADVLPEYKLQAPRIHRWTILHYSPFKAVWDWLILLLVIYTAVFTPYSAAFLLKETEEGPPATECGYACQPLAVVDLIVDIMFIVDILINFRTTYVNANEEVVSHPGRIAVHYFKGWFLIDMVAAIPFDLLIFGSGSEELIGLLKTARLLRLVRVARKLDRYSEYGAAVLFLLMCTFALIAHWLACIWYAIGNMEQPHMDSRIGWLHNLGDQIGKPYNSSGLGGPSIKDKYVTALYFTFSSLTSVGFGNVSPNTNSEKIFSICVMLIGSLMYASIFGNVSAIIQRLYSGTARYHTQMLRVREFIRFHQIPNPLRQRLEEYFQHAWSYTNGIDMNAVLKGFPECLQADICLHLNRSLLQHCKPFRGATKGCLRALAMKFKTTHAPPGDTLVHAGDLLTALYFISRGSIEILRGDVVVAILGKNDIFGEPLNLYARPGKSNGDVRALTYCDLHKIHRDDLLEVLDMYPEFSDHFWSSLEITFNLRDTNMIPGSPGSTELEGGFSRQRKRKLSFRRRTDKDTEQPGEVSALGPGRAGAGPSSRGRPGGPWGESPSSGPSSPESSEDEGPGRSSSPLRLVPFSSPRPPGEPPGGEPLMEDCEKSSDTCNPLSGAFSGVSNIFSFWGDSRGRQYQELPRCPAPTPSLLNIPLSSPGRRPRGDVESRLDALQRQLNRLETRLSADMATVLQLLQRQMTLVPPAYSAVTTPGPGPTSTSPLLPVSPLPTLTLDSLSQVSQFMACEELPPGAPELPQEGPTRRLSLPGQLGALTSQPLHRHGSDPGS
Assay type: functional
condition set: read-out: AC50; also: assay procedure not described here

compound | AC50
CC1=C(CC(=O)O)c2cc(F)ccc2/C1=C\c1ccc([S+](C)[O-])cc1 (stereo not given) | > 30 µM
COc1cccc2c1C(=O)c1c(O)c3c(c(O)c1C2=O)C[C@@](O)(C(=O)CO)C[C@@H]3O[C@H]1C[C@H](N)[C@H](O)[C@H](C)O1 | 5.63 µM
COC(=O)N[C@H](C(=O)N1CC2(CC2)C[C@H]1c1ncc(-c2ccc3c(c2)C(F)(F)c2cc(-c4ccc5nc([C@@H]6[C@H]7CC[C@H](C7)N6C(=O)[C@@H](NC(=O)OC)C(C)C)[nH]c5c4)ccc2-3)[nH]1)C(C)C | > 30 µM
CC(C)Nc1cccnc1N1CCN(C(=O)c2cc3cc(NS(C)(=O)=O)ccc3[nH]2)CC1 | 16 µM
CO/N=C(\C(=O)N[C@@H]1C(=O)N2C(C(=O)[O-])=C(C[n+]3ccc(N)n3CCO)CS[C@H]12)c1csc(N)n1 | > 30 µM
C[C@@H](O)[C@H]1C(=O)N2C(C(=O)O)=C(SCCN=CN)C[C@H]12 [IMIPENEM ANHYDROUS] | > 30 µM
CCn1c(=O)c2c(nc(/C=C/c3ccc(OC)c(OC)c3)n2C)n(CC)c1=O | > 30 µM
CC(=O)OCC1=C(C(=O)O)N2C(=O)[C@@H](NC(=O)CSc3ccncc3)[C@H]2SC1 | > 30 µM
Oc1cc(Cl)ccc1Oc1ccc(Cl)cc1Cl | > 30 µM
CC(C)Cc1ccc(C(C)C(=O)OCc2ccccn2)cc1 (stereo not given) | > 30 µM
CC(=O)[C@@]1(O)CC[C@H]2[C@@H]3C[C@H](C)C4=CC(=O)C=C[C@]4(C)[C@@]3(F)[C@@H](O)C[C@@]21C | > 30 µM
COc1ccc(-n2nc(C(N)=O)c3c2C(=O)N(c2ccc(N4CCCCC4=O)cc2)CC3)cc1 | > 30 µM
COc1cc2c(cc1OC)C1CC(=O)C(CC(C)C)CN1CC2 (stereo not given) | > 30 µM
O=c1[nH]c(=O)n([C@H]2C[C@H](O)[C@@H](CO)O2)cc1/C=C/Br | > 30 µM
O=C(O)c1nn(Cc2ccc(Cl)cc2Cl)c2ccccc12 | > 30 µM

====

A collection of compounds and their measured AC50
target or system: Histamine H3 receptor (Homo sapiens); also: assay procedure not described here
Sequence (Q9Y5N1 whole entry): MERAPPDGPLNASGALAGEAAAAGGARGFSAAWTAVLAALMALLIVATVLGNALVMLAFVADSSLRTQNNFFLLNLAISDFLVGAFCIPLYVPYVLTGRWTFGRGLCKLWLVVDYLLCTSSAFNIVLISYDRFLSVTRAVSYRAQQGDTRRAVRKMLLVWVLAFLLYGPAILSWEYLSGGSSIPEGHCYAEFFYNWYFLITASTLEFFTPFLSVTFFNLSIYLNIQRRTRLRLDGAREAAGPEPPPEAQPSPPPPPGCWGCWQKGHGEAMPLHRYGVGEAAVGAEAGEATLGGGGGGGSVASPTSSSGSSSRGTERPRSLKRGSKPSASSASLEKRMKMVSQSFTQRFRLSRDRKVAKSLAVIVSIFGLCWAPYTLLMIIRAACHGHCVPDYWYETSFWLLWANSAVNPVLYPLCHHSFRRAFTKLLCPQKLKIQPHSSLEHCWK
Where a SMILES comes first, the peptide text is derived from it.

compound | AC50
CN(C)CCOCC(=O)NC12CC3CC(CC(C3)C1)C2 | > 30 µM
O=C(O)COC(=O)Cc1ccccc1Nc1c(Cl)cccc1Cl | > 10 µM
CCOCC(O)COc1ccc(NC(=O)CC[S+](C)C)cc1 (centres undefined) | > 30 µM
CCC1(CC)C(=O)NC(=O)N(C)C1=O | > 10 µM
C[C@H](N)C(=O)N[C@@H](CCC(N)=O)C(=O)O [ALANYL GLUTAMINE] (H-Ala-Gln-OH) | > 30 µM
Nc1nnc(-c2cccc(Cl)c2Cl)c(N)n1 | > 10 µM
COc1ccc(C(Cl)=C(c2ccc(OC)cc2)c2ccc(OC)cc2)cc1 | > 30 µM
O=C(O[C@H]1C[N+]2(CCCOc3ccccc3)CCC1CC2)C(O)(c1cccs1)c1cccs1 [ACLIDINIUM BROMIDE] | > 10 µM
CCCCCCCC(=O)CC[C@@H]1[C@@H](C/C=C\CCCC(=O)O)[C@@H](O)C[C@H]1O | > 30 µM
